# TGT: T1, anti-BMP-7 antibodies of the commercial ELISA (R&D Systems ELISA Duoset Cat#DY354)
# T1 construct: also called antibody; ELISA antibody
# EXPERIMENTAL PROTOCOL: sandwich ELISA (R&D Systems BMP7 ELISA Cat#DY354), BMP-7 protein titrated, % ELISA signal; the EC50 column carries no unit, the concentration axis is in ug/mL
OBSERVED PROPERTY: EC50 (ng/mL)
State just the number; it will be interpreted in ng/mL.

BMP-7 variant 565 (Y65N/F93T/R129D) (ligand, Purified variant; also called v565) STGGKQRSQNRSKTPKNQEALRMASVAENSSSDQRQACKKHELYVSFRDLGWQDWIIAPEGYAANYCEGECAFPLNSYMNATNHAIVQTLVHTINPETVPKPCCAPTQLNAISVLYFDDSSNVILKKYDNMVVRACGCH: 6.88
BMP-7 variant 504 (Y65N/S120D) (ligand, Purified, unlabeled variant; also called v504) STGGKQRSQNRSKTPKNQEALRMASVAENSSSDQRQACKKHELYVSFRDLGWQDWIIAPEGYAANYCEGECAFPLNSYMNATNHAIVQTLVHFINPETVPKPCCAPTQLNAISVLYFDDDSNVILKKYRNMVVRACGCH: 8.21
BMP-7 variant 526 (K39S/S120D/R134E) (ligand, Purified variant; also called v526) STGGKQRSQNRSKTPKNQEALRMASVAENSSSDQRQACSKHELYVSFRDLGWQDWIIAPEGYAAYYCEGECAFPLNSYMNATNHAIVQTLVHFINPETVPKPCCAPTQLNAISVLYFDDDSNVILKKYRNMVVEACGCH: 1.19

Now let's try a different one.
Incoming: Which EC50 value is on record for recombinant human BMP-7 (R&D Systems) (ligand, Bought protein; also called wild type human BMP-7 (R&D Systems); wt) STGGKQRSQNRSKTPKNQEALRMASVAENSSSDQRQACKKHELYVSFRDLGWQDWIIAPEGYAAYYCEGECAFPLNSYMNATNHAIVQTLVHFINPETVPKPCCAPTQLNAISVLYFDDSSNVILKKYRNMVVRACGCH ?
Outgoing: 1.12
